# maps each entry to its CC50
System: RAW264.7
measurement-protocol: Cytotoxicity against mouse RAW264.7 cells assessed as cell viability by WST1 assay
Format: cell-based
experimental-context: read-out: LC50 (the source's name) (converted)

[
  {
    "molecule": "O=C(c1ccc(Cn2c(=O)c3ccccc3[s+]2[O-])cc1)N1CCCCC1 (stereo not given)",
    "system-under-test": "RAW264.7",
    "CC50": "> 100 µM"
  },
  {
    "molecule": "O=C(NCc1ccco1)c1ccc(CN2Cc3ccccc3C2=O)cc1",
    "system-under-test": "RAW264.7",
    "CC50": "> 100 µM"
  },
  {
    "molecule": "CC1=C(c2ccc3ccccc3c2)S(=O)(=O)N(Cc2ccc(C(=O)N3CCCCC3)cc2)C1=O",
    "system-under-test": "RAW264.7",
    "CC50": "47.9 µM"
  },
  {
    "molecule": "CC(C)(C)OC(=O)N(Cc1ccco1)C(=O)c1ccc(CN2Cc3ccccc3S2(=O)=O)cc1",
    "system-under-test": "RAW264.7",
    "CC50": "> 100 µM"
  },
  {
    "molecule": "COC(=O)N(Cc1ccco1)C(=O)c1ccc(CN2C(=O)c3ccccc3S2(=O)=O)cc1",
    "system-under-test": "RAW264.7",
    "CC50": "> 100 µM"
  },
  {
    "molecule": "O=C(c1ccc(CN2C(=O)c3ccccc3C2=O)cc1)N1CCCCC1",
    "system-under-test": "RAW264.7",
    "CC50": "> 100 µM"
  },
  {
    "molecule": "O=C(c1ccc(CN2Cc3ccccc3C2=O)cc1)N1CCCCC1",
    "system-under-test": "RAW264.7",
    "CC50": "> 100 µM"
  },
  {
    "molecule": "CC1=C(c2cc[n+]([O-])cc2)S(=O)(=O)N(Cc2ccc(C(=O)N3CCCCC3)cc2)C1=O",
    "system-under-test": "RAW264.7",
    "CC50": "> 100 µM"
  },
  {
    "molecule": "CC(C)(C)OC(=O)N(Cc1ccco1)C(=O)c1ccc(CN2Cc3ccccc3C2=O)cc1",
    "system-under-test": "RAW264.7",
    "CC50": "95.2 µM"
  },
  {
    "molecule": "CN(Cc1ccco1)C(=O)c1ccc(CN2C(=O)c3ccccc3S2(=O)=O)cc1",
    "system-under-test": "RAW264.7",
    "CC50": "> 100 µM"
  },
  {
    "molecule": "NC(=O)c1ccc(CN2C(=O)c3ccccc3S2(=O)=O)cc1",
    "system-under-test": "RAW264.7",
    "CC50": "> 100 µM"
  },
  {
    "molecule": "CN(C(=O)OC(C)(C)C)C(=O)c1ccc(CN2C(=O)c3ccccc3S2(=O)=O)cc1",
    "system-under-test": "RAW264.7",
    "CC50": "> 100 µM"
  },
  {
    "molecule": "O=C(c1ccc(CN2Cc3ccccc3S2(=O)=O)cc1)N1CCCCC1",
    "system-under-test": "RAW264.7",
    "CC50": "> 100 µM"
  },
  {
    "molecule": "O=C(NCc1ccco1)c1ccc(CN2C(=O)c3ccccc3S2(=O)=O)cc1",
    "system-under-test": "RAW264.7",
    "CC50": "> 100 µM"
  },
  {
    "molecule": "CNC(=O)c1ccc(CN2C(=O)c3ccccc3S2(=O)=O)cc1",
    "system-under-test": "RAW264.7",
    "CC50": "> 100 µM"
  },
  {
    "molecule": "CC(=O)N(Cc1ccco1)C(=O)c1ccc(CN2C(=O)c3ccccc3S2(=O)=O)cc1",
    "system-under-test": "RAW264.7",
    "CC50": "> 100 µM"
  },
  {
    "molecule": "CC(C)(C)OC(=O)N(Cc1ccco1)C(=O)c1ccc(CN2C(=O)c3ccccc3C2=O)cc1",
    "system-under-test": "RAW264.7",
    "CC50": "> 100 µM"
  },
  {
    "molecule": "CC(C)(C)OC(=O)c1ccc(CN2C(=O)c3ccccc3S2(=O)=O)cc1",
    "system-under-test": "RAW264.7",
    "CC50": "> 100 µM"
  },
  {
    "molecule": "O=C(NCc1ccco1)c1ccc(CN2C(=O)c3ccccc3C2=O)cc1",
    "system-under-test": "RAW264.7",
    "CC50": "> 100 µM"
  },
  {
    "molecule": "CC(C)(C)OC(=O)N(Cc1ccco1)C(=O)c1ccc(Cn2c(=O)c3ccccc3[s+]2[O-])cc1 (stereo not given)",
    "system-under-test": "RAW264.7",
    "CC50": "87.3 µM"
  }
]

###

Tested on: RAW264.7
measurement-protocol: Antiinflammatory activity in mouse RAW264.7 cells assessed as inhibition of LPS-induced nitric oxide production
Assay type: functional, cell-based
metric-name: log10(IC50) (log10 of the value in µM)

[
  {
    "molecule": "O=C(NCc1ccco1)c1ccc(Cn2c(=O)c3ccccc3[s+]2[O-])cc1 (configuration not stated)",
    "log10(IC50)": 1.37
  },
  {
    "molecule": "O=C(NCc1ccco1)c1ccc(CN2Cc3ccccc3C2=O)cc1",
    "log10(IC50)": 1.70
  },
  {
    "molecule": "CC(C)(C)OC(=O)NC(=O)c1ccc(CN2C(=O)c3ccccc3S2(=O)=O)cc1",
    "log10(IC50)": 1.81
  },
  {
    "molecule": "O=C(c1ccc(CN2Cc3ccccc3S2(=O)=O)cc1)N1CCCCC1",
    "log10(IC50)": 1.65
  },
  {
    "molecule": "CC(C)(C)OC(=O)N(Cc1ccco1)C(=O)c1ccc(Cn2oc3ccccc3c2=O)cc1",
    "log10(IC50)": 0.83
  },
  {
    "molecule": "O=C(NCc1ccco1)c1ccc(CN2C(=O)c3ccccc3C2=O)cc1",
    "log10(IC50)": 1.75
  },
  {
    "molecule": "O=C(NCCc1ccco1)c1ccc(CN2C(=O)c3ccccc3S2(=O)=O)cc1",
    "log10(IC50)": 1.88
  },
  {
    "molecule": "O=C(NCc1ccco1)c1ccc(Cn2sc3ccccc3c2=O)cc1",
    "log10(IC50)": 1.30
  },
  {
    "molecule": "CN(Cc1ccco1)C(=O)c1ccc(CN2C(=O)c3ccccc3S2(=O)=O)cc1",
    "log10(IC50)": 1.90
  },
  {
    "molecule": "CC(C)(C)OC(=O)c1ccc(CN2C(=O)c3ccccc3S2(=O)=O)cc1",
    "log10(IC50)": 1.03
  },
  {
    "molecule": "CC1=C(c2cc[n+]([O-])cc2)S(=O)(=O)N(Cc2ccc(C(=O)N3CCCCC3)cc2)C1=O",
    "log10(IC50)": 1.90
  },
  {
    "molecule": "NC(=O)c1ccc(CN2C(=O)c3ccccc3S2(=O)=O)cc1",
    "log10(IC50)": 1.70
  },
  {
    "molecule": "O=C(c1ccc(Cn2c(=O)c3ccccc3[s+]2[O-])cc1)N1CCCCC1 (configuration not stated)",
    "log10(IC50)": 1.69
  },
  {
    "molecule": "CC(C)(C)OC(=O)N(Cc1ccco1)C(=O)c1ccc(Cn2sc3ccccc3c2=O)cc1",
    "log10(IC50)": 1.83
  },
  {
    "molecule": "CC1=C(c2ccc3ccccc3c2)S(=O)(=O)N(Cc2ccc(C(=O)N3CCCCC3)cc2)C1=O",
    "log10(IC50)": 0.98
  },
  {
    "molecule": "O=C(NCc1ccco1)c1ccc(CN2C(=O)c3ccccc3S2(=O)=O)cc1",
    "log10(IC50)": 1.39
  },
  {
    "molecule": "CC1=C(c2ccc(C)c(C)c2)S(=O)(=O)N(Cc2ccc(C(=O)N3CCCCC3)cc2)C1=O",
    "log10(IC50)": 1.22
  }
]

###

As shown below, each of these molecules has a reported CC50 value.
Tested on: RAW264.7
measurement-protocol: Cytotoxicity against mouse RAW264.7 cells assessed as cell viability by WST1 assay
Format: cell-based
experimental-context: read-out: LC50 (the source's name) (converted)
metric-name: CC50

[
  {
    "molecule": "CC(C)(C)OC(=O)N(Cc1ccco1)C(=O)c1ccc(Cn2oc3ccccc3c2=O)cc1",
    "system-under-test": "RAW264.7",
    "test-result": "> 100 µM"
  },
  {
    "molecule": "O=C(c1ccc(Cn2oc3ccccc3c2=O)cc1)N1CCCCC1",
    "system-under-test": "RAW264.7",
    "test-result": "66.2 µM"
  },
  {
    "molecule": "O=C(NCc1ccco1)c1ccc(Cn2sc3ccccc3c2=O)cc1",
    "system-under-test": "RAW264.7",
    "test-result": "> 100 µM"
  },
  {
    "molecule": "O=C(c1ccc(CN2C(=O)c3ccccc3S2(=O)=O)cc1)N1CCCCC1",
    "system-under-test": "RAW264.7",
    "test-result": "69.2 µM"
  },
  {
    "molecule": "CC(C)(C)OC(=O)N(Cc1ccco1)C(=O)c1ccc(Cn2sc3ccccc3c2=O)cc1",
    "system-under-test": "RAW264.7",
    "test-result": "> 100 µM"
  },
  {
    "molecule": "O=C(NCc1ccco1)c1ccc(CN2Cc3ccccc3S2(=O)=O)cc1",
    "system-under-test": "RAW264.7",
    "test-result": "> 100 µM"
  },
  {
    "molecule": "O=C(NCCc1ccco1)c1ccc(CN2C(=O)c3ccccc3S2(=O)=O)cc1",
    "system-under-test": "RAW264.7",
    "test-result": "> 100 µM"
  },
  {
    "molecule": "O=C(O)c1ccc(CN2C(=O)c3ccccc3S2(=O)=O)cc1",
    "system-under-test": "RAW264.7",
    "test-result": "> 100 µM"
  },
  {
    "molecule": "CC(C)(C)OC(=O)N(C(=O)OC(C)(C)C)C(=O)c1ccc(CN2C(=O)c3ccccc3S2(=O)=O)cc1",
    "system-under-test": "RAW264.7",
    "test-result": "> 100 µM"
  },
  {
    "molecule": "O=C(c1ccc(Cn2sc3ccccc3c2=O)cc1)N1CCCCC1",
    "system-under-test": "RAW264.7",
    "test-result": "70.3 µM"
  },
  {
    "molecule": "O=C(NCc1ccco1)c1ccc(Cn2c(=O)c3ccccc3[s+]2[O-])cc1 (stereo unspecified)",
    "system-under-test": "RAW264.7",
    "test-result": "> 100 µM"
  }
]
